Molecular target: UniProtKB P49760
Sequence (P49760 whole entry): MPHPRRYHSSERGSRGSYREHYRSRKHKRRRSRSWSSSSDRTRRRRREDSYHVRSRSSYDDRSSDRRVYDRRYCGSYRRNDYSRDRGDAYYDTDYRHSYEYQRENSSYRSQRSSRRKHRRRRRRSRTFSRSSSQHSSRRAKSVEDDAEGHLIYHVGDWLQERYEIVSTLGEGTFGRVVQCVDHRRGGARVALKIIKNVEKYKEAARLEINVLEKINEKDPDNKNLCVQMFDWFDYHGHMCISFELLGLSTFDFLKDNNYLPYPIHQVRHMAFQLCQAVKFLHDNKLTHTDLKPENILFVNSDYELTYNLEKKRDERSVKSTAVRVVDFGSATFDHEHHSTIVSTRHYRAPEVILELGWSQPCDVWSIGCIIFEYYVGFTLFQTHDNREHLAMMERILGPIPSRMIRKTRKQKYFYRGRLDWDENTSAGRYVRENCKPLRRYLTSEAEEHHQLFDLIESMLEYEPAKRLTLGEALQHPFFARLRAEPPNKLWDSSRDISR
Where a name gives a salt, the structure may show the parent alone.
assay-metric: IC50 (µM)

compound	quantitative-readout
CN1C(=O)c2ccccc2N(C)c2cc(Nc3ccn(C4CCNCC4)n3)ncc21 [Compound 30, TFA Salt]	33

----------
Target chain: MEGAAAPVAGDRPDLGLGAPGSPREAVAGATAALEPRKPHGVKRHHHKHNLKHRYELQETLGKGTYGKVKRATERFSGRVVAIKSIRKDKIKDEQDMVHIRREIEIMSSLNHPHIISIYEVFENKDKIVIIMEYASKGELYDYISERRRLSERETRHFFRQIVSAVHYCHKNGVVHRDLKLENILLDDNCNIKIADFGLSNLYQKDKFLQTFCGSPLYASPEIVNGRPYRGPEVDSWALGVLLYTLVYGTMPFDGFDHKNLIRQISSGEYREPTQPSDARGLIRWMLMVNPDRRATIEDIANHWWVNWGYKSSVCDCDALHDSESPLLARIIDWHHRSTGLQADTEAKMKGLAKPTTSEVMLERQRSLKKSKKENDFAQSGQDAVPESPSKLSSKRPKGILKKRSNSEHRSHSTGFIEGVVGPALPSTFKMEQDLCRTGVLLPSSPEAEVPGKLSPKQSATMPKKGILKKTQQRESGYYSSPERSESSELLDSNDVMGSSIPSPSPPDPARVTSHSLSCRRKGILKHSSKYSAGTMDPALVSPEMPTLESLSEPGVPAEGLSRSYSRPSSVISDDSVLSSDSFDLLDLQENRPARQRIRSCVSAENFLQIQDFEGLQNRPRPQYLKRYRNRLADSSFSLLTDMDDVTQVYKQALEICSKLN
Counter-ions that a name gives are not always drawn.
Item-by-item account of IC50
assay-metric: IC50

compound	assay-metric	result
CN1C(=O)c2ccccc2N(C)c2cc(Nc3ccn(C4CCNCC4)n3)ncc21 [Compound 30, TFA Salt]	IC50	130 nM
CN1Cc2ccccc2N(C)c2cc(Nc3ccn(C4CCNCC4)n3)ncc21	IC50	1300 nM

----------
Sequence of the target: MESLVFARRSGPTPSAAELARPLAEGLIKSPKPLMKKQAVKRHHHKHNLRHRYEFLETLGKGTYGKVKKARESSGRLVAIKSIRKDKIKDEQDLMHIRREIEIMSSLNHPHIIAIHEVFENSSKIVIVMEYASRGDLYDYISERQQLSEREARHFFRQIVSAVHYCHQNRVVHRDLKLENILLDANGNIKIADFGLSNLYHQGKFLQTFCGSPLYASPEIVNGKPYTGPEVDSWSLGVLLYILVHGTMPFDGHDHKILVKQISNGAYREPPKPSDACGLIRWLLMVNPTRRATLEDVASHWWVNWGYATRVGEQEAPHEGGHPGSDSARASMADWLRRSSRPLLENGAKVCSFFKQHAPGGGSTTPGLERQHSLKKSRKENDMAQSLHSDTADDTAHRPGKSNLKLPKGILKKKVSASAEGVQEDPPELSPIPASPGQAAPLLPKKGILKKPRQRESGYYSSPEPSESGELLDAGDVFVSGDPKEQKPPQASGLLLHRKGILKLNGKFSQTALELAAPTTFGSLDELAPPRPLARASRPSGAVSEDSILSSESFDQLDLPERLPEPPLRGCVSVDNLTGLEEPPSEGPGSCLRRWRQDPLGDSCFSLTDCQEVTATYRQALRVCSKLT
pIC50: −log10 of the molar value. Structures can show the parent of a compound that is named as a salt.

molecule	pIC50
CN1C(=O)c2ccccc2N(C)c2cc(Nc3ccn(C4CCNCC4)n3)ncc21 [Compound 30, TFA Salt]	6.47

----------
Biological target: SIK2 (Homo sapiens, UniProt Q9H0K1)
Sequence (Q9H0K1 whole entry): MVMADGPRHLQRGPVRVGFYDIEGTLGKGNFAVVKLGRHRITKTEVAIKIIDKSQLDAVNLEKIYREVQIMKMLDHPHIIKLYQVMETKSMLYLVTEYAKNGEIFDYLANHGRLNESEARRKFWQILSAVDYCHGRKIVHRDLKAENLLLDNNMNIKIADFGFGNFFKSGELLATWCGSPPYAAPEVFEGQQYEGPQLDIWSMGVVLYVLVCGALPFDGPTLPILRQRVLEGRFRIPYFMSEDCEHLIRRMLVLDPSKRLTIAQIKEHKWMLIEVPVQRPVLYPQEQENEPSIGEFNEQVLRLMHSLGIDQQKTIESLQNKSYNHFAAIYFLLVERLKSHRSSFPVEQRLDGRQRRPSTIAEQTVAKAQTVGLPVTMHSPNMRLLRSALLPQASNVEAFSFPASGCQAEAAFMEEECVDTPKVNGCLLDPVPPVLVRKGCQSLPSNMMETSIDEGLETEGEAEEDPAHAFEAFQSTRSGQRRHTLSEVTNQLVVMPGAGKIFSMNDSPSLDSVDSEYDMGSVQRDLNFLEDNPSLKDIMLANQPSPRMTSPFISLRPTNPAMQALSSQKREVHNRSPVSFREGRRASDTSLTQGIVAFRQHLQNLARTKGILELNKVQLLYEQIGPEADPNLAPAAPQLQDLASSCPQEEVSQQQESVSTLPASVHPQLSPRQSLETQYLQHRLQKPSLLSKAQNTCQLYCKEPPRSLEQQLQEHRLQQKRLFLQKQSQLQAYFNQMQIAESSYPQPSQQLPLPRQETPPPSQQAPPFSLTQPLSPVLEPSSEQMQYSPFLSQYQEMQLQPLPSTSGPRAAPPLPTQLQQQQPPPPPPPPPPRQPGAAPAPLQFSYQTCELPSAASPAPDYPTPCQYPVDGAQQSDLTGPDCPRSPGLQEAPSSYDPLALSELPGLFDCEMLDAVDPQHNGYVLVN
Structures can show the parent of a compound that is named as a salt.
assay-metric: IC50 (nM)

compound	units-symbol	quantitative-readout
CN1C(=O)c2ccccc2N(C)c2cc(Nc3ccn(C4CCNCC4)n3)ncc21 [Compound 30, TFA Salt]	nM	1500
